// data source = PubChem BioAssay (NCI)

System: SF-539 CNS
assayComment: NCI tumour cell line growth inhibition, 48 h
Kindly state TGI for each of the entries shown.

Problem: Form: Entry = COP(=O)(Cc1ccccc1)Cc1ccccc1 | System = SF-539 CNS | TGI = ____
Solution: > 100 µM

Problem: Form: Entry = COc1ccc(/C=C2\CCC(C)/C(=C\c3ccc(OC)c(OC)c3)C2=O)cc1OC (configuration not stated) | System = SF-539 CNS | TGI = ____
Solution: 13.8 µM

Problem: Form: Entry = O=C(Nc1cc2c(=O)oc3ccccc3c2oc1=O)c1cccnc1 | System = SF-539 CNS | TGI = ____
Solution: > 100 µM

Problem: Form: Entry = c1ccc(C2=NOC3(c4ccccc4)SC4CCCCC4CN23)cc1 (configuration not stated) | System = SF-539 CNS | TGI = ____
Solution: 39.2 µM

Problem: Form: Entry = O=C(O)c1cc2ccccc2oc1=O | System = SF-539 CNS | TGI = ____
Solution: > 100 µM

Problem: Form: Entry = OC[C@]1(n2nc3ccccc3n2)OC[C@@H]1c1ccccc1 | System = SF-539 CNS | TGI = ____
Solution: 69.2 µM

Problem: Form: Entry = O=C(CCCNc1nc(-c2ccccc2)cs1)c1cccs1 | System = SF-539 CNS | TGI = ____
Solution: > 100 µM

Problem: Form: Entry = CN1C(c2ccccc2)CS(=O)(=O)CS1(=O)=O (configuration not stated) | System = SF-539 CNS | TGI = ____
Solution: > 100 µM

Problem: Form: Entry = O=C1N2CCc3c([nH]c4ccccc34)C23CC2CCCCC12S3 (configuration not stated) | System = SF-539 CNS | TGI = ____
Solution: > 100 µM

Problem: Form: Entry = C=C(C)CC1(O)C(=O)C(OCC)=C1OCC (configuration not stated) | System = SF-539 CNS | TGI = ____
Solution: > 100 µM

Problem: Form: Entry = Nc1nc2cc3ccc(C4CC(O)C(CO)O4)cc3cc2c(=O)[nH]1 (configuration not stated) | System = SF-539 CNS | TGI = ____
Solution: > 100 µM

Problem: Form: Entry = CCN1C[C@]2(C)CC[C@H](OC)C34C1C([C@H](OC(C)=O)[C@@H]32)[C@@]1(OC)C[C@H](OC)[C@H]2C[C@@H]4[C@@H]1[C@H]2O | System = SF-539 CNS | TGI = ____
Solution: > 100 µM

Problem: Form: Entry = CN1CCN(c2cc(C(=O)Nc3cc4cc(-c5cnn(C)c5)ccc4cn3)ccn2)CC1 | System = SF-539 CNS | TGI = ____
Solution: 2.38 µM

Problem: Form: Entry = CCCCCCCC/C=C\CCCCCCCC(=O)O | System = SF-539 CNS | TGI = ____
Solution: 184 µM

Problem: Form: Entry = CC1(C)OB(O)OC1(C)C | System = SF-539 CNS | TGI = ____
Solution: > 100 µM

Problem: Form: Entry = CCOC(=O)c1nc2ccccc2nc1Nc1ccc(OC)c(OC)c1 | System = SF-539 CNS | TGI = ____
Solution: > 100 µM

Problem: Form: Entry = Cc1cc(S(=O)(=O)/N=C(\[N-]S(=O)(=O)c2ccc(Cl)cc2)[n+]2ccc(N(C)C)cc2)c(S)cc1Cl | System = SF-539 CNS | TGI = ____
Solution: > 100 µM

Problem: Form: Entry = C[C@]12Cc3cnn(-c4ccc(F)cc4)c3NC1CC[C@@H]1C2CC[C@@]2(C)C1CC[C@@H]2O (some centres not stated) | System = SF-539 CNS | TGI = ____
Solution: 8.56 µM

Problem: Form: Entry = S=C(Nc1ccc(Cl)cc1)Nc1ccc(-c2nc3ccccc3o2)cc1 | System = SF-539 CNS | TGI = ____
Solution: 41.8 µM

Problem: Form: Entry = O=C(Nc1ccccc1O)c1ccc(CNc2ccnc(C(F)(F)F)c2)cc1 | System = SF-539 CNS | TGI = ____
Solution: 23.1 µM

Problem: Form: Entry = COc1cc(O)c2c(c1)C(=O)C=C(Cl)C2=O | System = SF-539 CNS | TGI = ____
Solution: > 100 µM

Problem: Form: Entry = Cc1cc(C)c2c(c1)CC1(Cc3c(C)ccc(C)c3C1=O)C2=O (configuration not stated) | System = SF-539 CNS | TGI = ____
Solution: > 100 µM

Problem: Form: Entry = N=C(N)c1ccc(-c2ccc(-c3ccccc3)s2)cc1 | System = SF-539 CNS | TGI = ____
Solution: 3 µM

Problem: Form: Entry = COc1ccc(C(=O)C(c2ccc(OC)cc2)C2OC(=O)C(Cl)=C2Cl)cc1 (configuration not stated) | System = SF-539 CNS | TGI = ____
Solution: > 100 µM

Problem: Form: Entry = N#CC(C#N)N=Nc1ccc(Br)cc1 | System = SF-539 CNS | TGI = ____
Solution: 18.3 µM

Problem: Form: Entry = CN1CCN(c2ccc(Nc3nc(N)c(C(=O)c4ccc5c(c4)OCCO5)s3)cc2)CC1 | System = SF-539 CNS | TGI = ____
Solution: 8.33 µM

Problem: Form: Entry = CCn1cc(-c2ccnc3[nH]ccc23)c(-c2cccc(NC(=O)Nc3ccc(OCc4ccccc4)cc3)c2)n1 | System = SF-539 CNS | TGI = ____
Solution: > 25 µM

Problem: Form: Entry = COC1=CC(=O)C(OC)=C(OC)C1=O | System = SF-539 CNS | TGI = ____
Solution: 30.9 µM

Problem: Form: Entry = Cc1oc(N)c(S(=O)(=O)c2ccc(Cl)cc2)c1C | System = SF-539 CNS | TGI = ____
Solution: 64.2 µM

Problem: Form: Entry = Cc1cccc(CC(Cc2c(C)cccc2C(=O)O)C(=O)O)c1 (configuration not stated) | System = SF-539 CNS | TGI = ____
Solution: > 100 µM

Problem: Form: Entry = O=C(O)Cc1ccc(Oc2nc3ccccc3nc2C(=O)O)cc1 | System = SF-539 CNS | TGI = ____
Solution: > 100 µM

Problem: Form: Entry = N=c1c2c(=S)n(-c3ccccc3)c(=S)n(-c3ccccc3)c2nc(SCCCN2CCN(c3cccc(Cl)c3)CC2)n1-c1ccccc1 | System = SF-539 CNS | TGI = ____
Solution: > 100 µM

Problem: Form: Entry = COc1ccc(/C=C2\CC(C)CC3C2=NN(C(C)=O)C3c2ccc(OC)cc2)cc1 (configuration not stated) | System = SF-539 CNS | TGI = ____
Solution: 38.1 µM

Problem: Form: Entry = C=C1C(=O)C[C@@]23CCC[C@@]12CC(OCOC)C3 (some centres not stated) | System = SF-539 CNS | TGI = ____
Solution: 9.5 µM

Problem: Form: Entry = Brc1c(C#CCC(c2ccccc2)(c2ccccc2)c2ccccc2)ccc(C#CCC(c2ccccc2)(c2ccccc2)c2ccccc2)c1Br | System = SF-539 CNS | TGI = ____
Solution: > 100 µM

Problem: Form: Entry = CCOC(=O)Cc1csc2[n+]1C(=O)/C(=C\c1cccc(Cl)c1Cl)S2 | System = SF-539 CNS | TGI = ____
Solution: 47.1 µM

Problem: Form: Entry = Cc1cc(N=Nc2c(O)ccc3ccccc23)ccc1N=Nc1cccc([N+](C)(C)C)c1 | System = SF-539 CNS | TGI = ____
Solution: 22.3 µM
